- Test system: V79
- Experimental Details: Cytotoxicity against V-79 cells
- Format: functional, cell-based
- Condition Notes: Cricetulus griseus
pIC50: −log10 of the molar value.
pIC50 values for the molecules below.
Quantity Kind: pIC50

{"Molecule": "O=c1ccc2ccccc2o1 [COUMARIN]", "Quantity Kind": "pIC50", "Comparison Sign": "<", "Readout Value": 4.00}
{"Molecule": "CC(C)CCc1cccc2ccc(=O)oc12", "Quantity Kind": "pIC50", "Comparison Sign": "=", "Readout Value": 4.22}
{"Molecule": "COc1ccc2ccc(=O)oc2c1CCC(C)C", "Quantity Kind": "pIC50", "Comparison Sign": "=", "Readout Value": 4.24}
{"Molecule": "CCCCOc1ccc2ccc(=O)oc2c1CCC(C)C", "Quantity Kind": "pIC50", "Comparison Sign": "=", "Readout Value": 4.80}
{"Molecule": "CCCOc1ccc2ccc(=O)oc2c1CCC(C)C", "Quantity Kind": "pIC50", "Comparison Sign": "=", "Readout Value": 5.25}
{"Molecule": "COc1ccc2ccc(=O)oc2c1CC(O)C(C)(C)O (configuration not stated)", "Quantity Kind": "pIC50", "Comparison Sign": "<", "Readout Value": 4.00}
{"Molecule": "O=c1ccc2ccc(O)cc2o1 [UMBELLIFERONE]", "Quantity Kind": "pIC50", "Comparison Sign": "=", "Readout Value": 4.24}
